Experiment: NCI Yeast Anticancer Drug Screen. Data for the cln2 rad14 strain (AID 165)
Details: S. cerevisiae cln2 rad14 strain, at 5.0 µM (retest, dose inferred, filed as 0.5)
This is part of a sample that, as a whole, favours compounds with a hit. Of some 79,000 tested, about 15% had one in any assay. Calls of active or inactive are those of the source. Rule as the data show it: active = growth inhibition above about 70%; inactive = the rest.
Outcome (select one): active, inactive

// below: answered molecules
{"Molecule": "CC(=O)N1C=Cc2c(c(C)c3c([nH]c4ccccc43)c2C)C1", "Label class": "inactive"}
{"Molecule": "O=C1c2ccccc2N2OC3(N4CCCC4)CCCCC3C12c1ccccc1 (configuration not stated)", "Label class": "inactive"}
{"Molecule": "C[C@H](CCC1=NC(C)(C)CO1)C1CCC2[C@@H]3C(O)C[C@@H]4CC(O)CC[C@]4(C)C3CC[C@@]21C (some centres not stated)", "Label class": "inactive"}
{"Molecule": "Nc1ccc(N=Nc2ccc(-c3ccc(O)cc3)cc2)c2ccc(S(=O)(=O)O)cc12", "Label class": "inactive"}
{"Molecule": "CC1(C)CC(=O)C(/C=N/c2nc(-c3ccc(Br)cc3)cs2)=C(O)C1", "Label class": "inactive"}

Query :: Dear colleague, could you share the recorded outcome for COc1ccc2nc(CCc3ccccc3)ccc2c1 when you have a moment?
Result :: inactive

Query :: State the result this test recorded for CCCCCCCN1C(=O)c2ccccc2C1=O .
Result :: inactive

Query :: Lab log entry: CNC(=S)N/N=C(/C)CCC/C(C)=N/NC(=S)NC — outcome as called in the assay?
Result :: inactive

Query :: Per the records of this test, what outcome belongs to CCC(C)COC(=O)Nc1cccc(Cl)c1 (configuration not stated) ?
Result :: inactive

Query :: GET /call?item= O=c1[nH]c2c([N+](=O)[O-])cccc2c2ccccc12 returns the recorded outcome of this test.
Result :: inactive

Query :: Hi, sorry to bother you, what did the test record for Cc1cccc(/C=N/NC(=S)NC2CCCCC2)n1 ?
Result :: inactive

Query :: Hi, sorry to bother you, what did the test record for COc1cc(OC)c(CSCC(NC(=O)OCC2c3ccccc3-c3ccccc32)C(=O)O)c(OC)c1 (configuration not stated) ?
Result :: inactive

Query :: Record request — test call for O=S(=O)(NNc1ccccc1)c1ccccc1
Result :: inactive
